Target: Sodium-dependent noradrenaline transporter (Homo sapiens, UniProt P23975); further: assay procedure not described here
Sequence (P23975 whole entry): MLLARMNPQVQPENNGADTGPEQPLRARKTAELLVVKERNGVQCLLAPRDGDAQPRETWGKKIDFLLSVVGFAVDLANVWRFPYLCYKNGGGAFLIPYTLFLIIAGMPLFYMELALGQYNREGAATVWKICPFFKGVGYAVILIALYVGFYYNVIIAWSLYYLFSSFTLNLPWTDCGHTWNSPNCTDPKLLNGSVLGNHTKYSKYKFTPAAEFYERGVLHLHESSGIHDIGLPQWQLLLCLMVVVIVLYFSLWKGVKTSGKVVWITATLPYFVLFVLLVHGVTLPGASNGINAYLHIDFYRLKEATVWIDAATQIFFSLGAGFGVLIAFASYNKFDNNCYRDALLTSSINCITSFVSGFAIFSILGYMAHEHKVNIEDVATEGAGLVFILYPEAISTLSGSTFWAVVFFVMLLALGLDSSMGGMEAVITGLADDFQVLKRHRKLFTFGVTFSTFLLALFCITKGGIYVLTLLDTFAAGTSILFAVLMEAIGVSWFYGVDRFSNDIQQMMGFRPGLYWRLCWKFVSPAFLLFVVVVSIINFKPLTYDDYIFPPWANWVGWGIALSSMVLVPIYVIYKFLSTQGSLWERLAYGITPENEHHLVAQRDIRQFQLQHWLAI
Below, each of the compounds is paired with its reported AC50 value.

compound | AC50
CC(C)(Oc1ccc(Cl)cc1)C(=O)NC(=O)NCN1CCOCC1 [PLAFIBRIDE] | > 30 µM
Nc1ccc(C(=O)NCC(=O)O)cc1 | > 30 µM
C[C@H](Nc1ncnc2[nH]cnc12)c1cc2cccc(Cl)c2c(=O)n1-c1ccccc1 | > 30 µM
C#C[C@]1(OC(C)=O)CC[C@H]2[C@@H]3CCC4=CC(=O)CC[C@@H]4[C@H]3CC[C@@]21C [NORETHINDRONE ACETATE] | 19.1 µM
C[C@@H]1CN(c2c(F)c(N)c3c(=O)c(C(=O)O)cn(C4CC4)c3c2F)C[C@H](C)N1 | > 30 µM
CC(C)N1CCOC(c2cccc(C(F)(F)F)c2)C1 (stereo unspecified) | > 30 µM
O=NN(CCCl)C(=O)NCCCl | > 30 µM
CC1=C(C/C=C(\C)CCC[C@H](C)CCC[C@H](C)CCCC(C)C)C(=O)c2ccccc2C1=O | > 30 µM

Simply: CC1(C)S[C@@H]2[C@H](NC(=O)[C@H](NC(=O)c3cnc4cccnc4c3O)c3ccccc3)C(=O)N2[C@H]1C(=O)O , Sodium-dependent noradrenaline transporter (Homo sapiens, UniProt P23975), AC50 = > 30 µM

Recorded AC50 for Oc1ccc(OCc2ccccc2)cc1 on Sodium-dependent noradrenaline transporter (Homo sapiens, UniProt P23975) was 6.96 µM

Summary line: Cc1ncc(CO)c(CO)c1O , Sodium-dependent noradrenaline transporter (Homo sapiens, UniProt P23975), reported AC50 = > 30 µM
